Each item that follows carries a reported IC50.
# System name: human plasma protein factor Xa (Homo sapiens, UniProt P00742)
# Construct: The human plasma protein factor Xa was purchased from Haematologic Technologies; purchased Haematologic Technologies (Essex Junction, Vt.); host or cells: human plasma
# Sequence (P00742 235-488 limits assumed): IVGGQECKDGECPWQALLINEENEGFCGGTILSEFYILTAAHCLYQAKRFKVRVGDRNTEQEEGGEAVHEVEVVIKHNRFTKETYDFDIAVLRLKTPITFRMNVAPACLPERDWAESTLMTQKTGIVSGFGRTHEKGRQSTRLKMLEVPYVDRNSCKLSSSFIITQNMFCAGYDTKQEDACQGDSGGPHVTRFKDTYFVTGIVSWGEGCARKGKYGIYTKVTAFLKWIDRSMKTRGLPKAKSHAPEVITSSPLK
# Sequence (P00742 41-179 partner limits assumed): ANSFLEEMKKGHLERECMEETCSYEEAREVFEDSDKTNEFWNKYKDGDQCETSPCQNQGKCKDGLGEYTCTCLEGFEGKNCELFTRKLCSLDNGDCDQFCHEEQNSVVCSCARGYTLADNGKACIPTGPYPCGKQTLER
# Method notes: Factor Xa IC50 determination, cleavage of paranitroanilide substrate S-2765
# Type: biochemical
# Condition context: factor Xa 1 nM, S2765 100 μM, Tris buffered saline pH 7.4, 5% DMSO

Please review the following examples before continuing.
CC(=O)Nc1ccn(-c2ccc(-n3cnc(CNC(=O)c4ccc(Cl)s4)c3)cc2)c(=O)n1 | ≤ 100 nM
O=C(NCc1cn(-c2ccc(-n3ncccc3=O)cc2)cn1)c1ccc(Cl)s1 | ≥ 500 nM
Cc1c(CNC(=O)c2ccc(Cl)s2)ncn1-c1ccc(-n2ccccc2=O)cc1 | ≥ 500 nM
Cc1nc(CNC(=O)c2ccc(Cl)s2)cn1-c1ccc(-n2ccccc2=O)cc1 | ≤ 100 nM

Form: molecule = "O=C(NCc1cn(-c2ccc(-n3ccc(O)cc3=O)cc2)cn1)c1ccc(Cl)s1" ; IC50 = 100 to 500 nM

Form: molecule = "O=C(NCc1cn(-c2ccc(N3CCSCC3=O)cc2)cn1)c1ccc(Cl)s1" ; IC50 = ≤ 100 nM

Form: molecule = "O=C(NCc1cn(-c2ccc(-n3ccccc3=O)cc2O)cn1)c1ccc(Cl)s1" ; IC50 = 100 to 500 nM

----------
Each item that follows carries a reported pIC50.
# System name: human plasma protein factor Xa (Homo sapiens)
# Construct: The human plasma protein factor Xa was purchased from Haematologic Technologies
# Method notes: Factor Xa IC50 determination, cleavage of paranitroanilide substrate S-2765
# Condition context: factor Xa 1 nM, S2765 100 μM, Tris buffered saline pH 7.4, 5% DMSO
pIC50: −log10 of the molar value.

O=C(NCc1cn(-c2ccc(N3CCS(=O)(=O)CC3=O)cc2)cn1)c1ccc(Cl)s1 | ≤ 6.30
C/N=c1\ccccn1-c1ccc(-n2cnc(CNC(=O)c3ccc(Cl)s3)c2)cc1 | ≥ 7.00
COC(=O)c1cc(-n2ccccc2=O)ccc1-n1cnc(CNC(=O)c2ccc(Cl)s2)c1 | ≤ 6.30

Form: compound = "O=C(NCc1cn(-c2ccc(-n3cccc(OCCO)c3=O)cc2)cn1)c1ccc(Cl)s1" ; pIC50 = ≥ 7.00

----------
Each item that follows carries a reported pIC50.
# System name: human plasma protein factor Xa (Homo sapiens, UniProt P00742)
# Construct: The human plasma protein factor Xa was purchased from Haematologic Technologies
# Method notes: Factor Xa IC50 determination, cleavage of paranitroanilide substrate S-2765
# Condition context: factor Xa 1 nM, S2765 100 μM, Tris buffered saline pH 7.4, 5% DMSO
pIC50: −log10 of the molar value.

Form: compound = "O=C(NCc1cn(-c2ccc(-n3ccccc3=O)cc2OCCN2CCCCC2)cn1)c1ccc(Cl)s1" ; pIC50 = ≥ 7.00

Form: compound = "COc1cccn(-c2ccc(-n3cnc(CNC(=O)c4ccc(Cl)s4)c3)cc2)c1=O" ; pIC50 = ≥ 7.00

Form: compound = "Cn1c(Cl)ccc1C(=O)NCc1cn(-c2ccc(-n3ccccc3=O)cc2)cn1" ; pIC50 = ≤ 6.30

Form: compound = "C#Cc1ccc(C(=O)NCc2cn(-c3ccc(-n4ccccc4=O)cc3)cn2)s1" ; pIC50 = ≥ 7.00

----------
# System name: human plasma protein factor Xa (Homo sapiens, UniProt P00742)
# Construct: The human plasma protein factor Xa was purchased from Haematologic Technologies
# Method notes: Factor Xa IC50 determination, cleavage of paranitroanilide substrate S-2765
# Condition context: factor Xa 1 nM, S2765 100 μM, Tris buffered saline pH 7.4, 5% DMSO
Each item that follows carries a reported IC50.

Please review the following examples before continuing.
O=C1CN(c2cc(-n3ccccc3=O)ccc2-n2cnc(CNC(=O)c3ccc(Cl)s3)c2)CCN1 | ≤ 100 nM
O=C(NCc1cn(-c2ccc(N3CCCCC3=O)cc2)cn1)c1ccc(Cl)s1 | ≤ 100 nM
C[S+]([O-])c1nc(CNC(=O)c2ccc(Cl)s2)cn1-c1ccc(-n2cccc(F)c2=O)cc1 (centres unmarked) | ≤ 100 nM
O=C(NCc1cn(-c2ccc(-n3ccccc3=O)c(F)c2)cn1)c1ccc(Cl)s1 | ≤ 100 nM
Nc1ccn(-c2ccc(-n3cnc(CNC(=O)c4ccc(Cl)s4)c3)cc2)c(=O)n1 | ≤ 100 nM

Noted IC50 for "O=C(NCc1cn(-c2ccc(-n3ccccc3=O)cc2)cn1)c1ccc2[nH]ccc2c1" , tested on human plasma protein factor Xa (Homo sapiens, UniProt P00742): ≥ 500 nM

Noted IC50 for "Nc1nc(=O)n(-c2ccc(-n3cnc(CNC(=O)c4ccc(Cl)s4)c3)cc2)cc1F" , tested on human plasma protein factor Xa (Homo sapiens, UniProt P00742): ≤ 100 nM

Noted IC50 for "O=C(NCc1cn(-c2ccc(-n3ccccc3=O)cc2F)cn1)c1ccc(Cl)s1" , tested on human plasma protein factor Xa (Homo sapiens, UniProt P00742): ≤ 100 nM

Noted IC50 for "O=C(NCc1cn(-c2ccc(-n3ccncc3=O)cc2)cn1)c1ccc(Cl)s1" , tested on human plasma protein factor Xa (Homo sapiens, UniProt P00742): ≤ 100 nM

Noted IC50 for "O=C(NCc1cn(-c2ccc(-n3ccnc(O)c3=O)cc2)cn1)c1ccc(Cl)s1" , tested on human plasma protein factor Xa (Homo sapiens, UniProt P00742): ≤ 100 nM

----------
# System name: human plasma protein factor Xa (Homo sapiens, UniProt P00742)
# Construct: The human plasma protein factor Xa was purchased from Haematologic Technologies
# Method notes: Factor Xa IC50 determination, cleavage of paranitroanilide substrate S-2765
# Condition context: factor Xa 1 nM, S2765 100 μM, Tris buffered saline pH 7.4, 5% DMSO
# Excerpt: This example illustrates methods for evaluating the compounds of the invention, along with results obtained for such assays. The in vitro and in vivo human Factor Xa activities of the inventive compounds can be determined by various procedures known in the art, such as a test for their ability to inhibit the activity of human plasma Factor Xa. […] The IC50 value is the concentration (in nM) of the compound required to provide 50% inhibition of human Factor Xa proteolytic activity. […]
Each item that follows carries a reported IC50.

Please review the following examples before continuing.
CS(=O)(=O)c1nc(CNC(=O)c2ccc(Cl)s2)cn1-c1ccc(-n2ccccc2=O)cc1 | ≤ 0.1 µM
Cc1cccn(-c2ccc(-n3cnc(CNC(=O)c4ccc(Cl)s4)c3)cc2)c1=O | ≤ 0.1 µM
O=C(NCc1cn(-c2ccc(N3CCOCC3=O)cc2)cn1)c1ccc(Cl)s1 | ≤ 0.1 µM
O=C(NCc1cn(-c2ccc(-n3ccccc3=O)cc2NCCO)cn1)c1ccc(Cl)s1 | ≤ 0.1 µM

Noted IC50 for "O=C1CN(c2ccc(-n3cnc(CNC(=O)c4ccc(Cl)s4)c3)cc2)C(=O)CN1" , tested on human plasma protein factor Xa (Homo sapiens, UniProt P00742): ≥ 0.5 µM

Noted IC50 for "O=C(NCc1cn(-c2ccc(-n3ccc(=O)[nH]c3=O)cc2)cn1)c1ccc(Cl)s1" , tested on human plasma protein factor Xa (Homo sapiens, UniProt P00742): ≤ 0.1 µM

Noted IC50 for C[S+]([O-])c1nc(CNC(=O)c2ccc(Cl)s2)cn1-c1ccc(-n2ccccc2=O)cc1 (stereo not shown) , tested on human plasma protein factor Xa (Homo sapiens, UniProt P00742): ≤ 0.1 µM

Noted IC50 for "O=C(NCc1cn(-c2ccc(-n3ccccc3=O)cc2N2CCS(=O)(=O)CC2)cn1)c1ccc(Cl)s1" , tested on human plasma protein factor Xa (Homo sapiens, UniProt P00742): ≤ 0.1 µM

Noted IC50 for "O=C(NCc1cn(-c2ccc(N3CCCNC3=O)cc2)cn1)c1ccc(Cl)s1" , tested on human plasma protein factor Xa (Homo sapiens, UniProt P00742): ≤ 0.1 µM

Noted IC50 for "Cn1cc(Cl)cc1C(=O)NCc1cn(-c2ccc(-n3ccccc3=O)cc2)cn1" , tested on human plasma protein factor Xa (Homo sapiens, UniProt P00742): ≥ 0.5 µM

----------
Each item that follows carries a reported IC50.
# System name: human plasma protein factor Xa (Homo sapiens, UniProt P00742)
# Construct: The human plasma protein factor Xa was purchased from Haematologic Technologies
# Method notes: Factor Xa IC50 determination, cleavage of paranitroanilide substrate S-2765
# Condition context: factor Xa 1 nM, S2765 100 μM, Tris buffered saline pH 7.4, 5% DMSO

Please review the following examples before continuing.
CS(=O)(=O)c1nc(CNC(=O)c2ccc(Cl)s2)cn1-c1ccc(-n2cc(F)ccc2=O)cc1 | ≤ 100 nM
NC(=O)/N=c1\ccccn1-c1ccc(-n2cnc(CNC(=O)c3ccc(Cl)s3)c2)cc1 | ≤ 100 nM
O=C(NCc1cn(-c2ccc(N3CC[S+]([O-])CC3=O)cc2)cn1)c1ccc(Cl)s1 (stereo not shown) | 100 to 500 nM
O=C(NCc1cn(-c2ccc(-n3ccccc3=S)cc2)cn1)c1ccc(Cl)s1 | ≤ 100 nM
CS(=O)(=O)c1cc(-n2ccccc2=O)ccc1-n1cnc(CNC(=O)c2ccc(Cl)s2)c1 | ≤ 100 nM
COc1ccc(/N=c2\ccccn2-c2ccc(-n3cnc(CNC(=O)c4ccc(Cl)s4)c3)cc2)cc1 | ≤ 100 nM
O=C(NCc1cn(-c2ccc(-n3ccccc3=O)cc2)cn1)c1ccc2cc[nH]c2c1 | ≥ 500 nM
O=C(NCc1cn(-c2ccc(-n3cccc(F)c3=O)cc2)cn1)c1ccc(Cl)s1 | ≤ 100 nM

Form: compound = "CC(=O)/N=c1\ccccn1-c1ccc(-n2cnc(CNC(=O)c3ccc(Cl)s3)c2)cc1" ; IC50 = ≤ 100 nM

Form: compound = "O=C(NCc1cn(-c2ccc(-n3ccccc3=O)cc2)cn1)c1ccc(Cl)s1" ; IC50 = ≤ 100 nM

Form: compound = "O=C(NCc1cn(-c2ccc(-n3ccccc3=O)cc2N2CCSCC2)cn1)c1ccc(Cl)s1" ; IC50 = ≤ 100 nM

Form: compound = "N#C/N=c1\ccccn1-c1ccc(-n2cnc(CNC(=O)c3ccc(Cl)s3)c2)cc1" ; IC50 = ≤ 100 nM

Form: compound = "O=C(NCc1cn(-c2ccc(N3CCNC3=O)cc2)cn1)c1ccc(Cl)s1" ; IC50 = 100 to 500 nM

Form: compound = "Cn1c(=O)ccn(-c2ccc(-n3cnc(CNC(=O)c4ccc(Cl)s4)c3)cc2)c1=O" ; IC50 = ≤ 100 nM

Form: compound = "O=C(NCc1cn(-c2ccc(-n3cccc(O)c3=O)cc2)cn1)c1ccc(Cl)s1" ; IC50 = ≤ 100 nM

Form: compound = "Cc1cccc(=O)n1-c1ccc(-n2cnc(CNC(=O)c3ccc(Cl)s3)c2)cc1" ; IC50 = ≤ 100 nM
